tested on: downy brome; experiment: Test C pre-/postemergence test; type: in vivo, Bromus tectorum; settings: Preemergence, 31 g ai/ha; scale 0 to 100 (0 no effect, 100 complete control)
Would you kindly list Plant response rating, Bromegrass, Downy for each of these molecules?
Give bare numbers.

In the examples that follow, each entry is paired with its recorded Plant response rating, Bromegrass, Downy.
INSERT INTO measurements (molecule, assay_result) VALUES
  ('Cn1nc(C(F)(F)F)c(CS(=O)(=O)c2ccc(Cl)c[n+]2[O-])c1OCC(F)(F)F', 0),
  ('Cn1nc(C(F)(F)F)c(CS(=O)(=O)c2ccc(Cl)c[n+]2[O-])c1Cl', 0),
  ('Cn1nc(C(F)(F)F)c(C[S+]([O-])c2ccc(F)c[n+]2[O-])c1OC(F)F (stereo not drawn)', 0),
  ('Cn1nc(C(F)(F)F)c(C[S+]([O-])c2ccc(Cl)c[n+]2[O-])c1OCC(F)(F)F (racemic)', 50),
  ('Cn1nc(C(F)(F)F)c(C[S+]([O-])c2cccc[n+]2[O-])c1OCC(F)(F)F (racemic)', 0);

Give me Plant response rating, Bromegrass, Downy for each of these molecules, listed below.
1. Cn1nc(C(F)(F)F)c(C[S+]([O-])c2cc(F)cc[n+]2[O-])c1Cl (racemic)
2. Cc1cc[n+]([O-])c(S(=O)(=O)C(Cl)c2c(C(F)(F)F)nn(C)c2OCC(F)(F)F)c1 (racemic)
3. CC(Oc1c(C[S+]([O-])c2cccc[n+]2[O-])c(C(F)(F)F)nn1C)C(F)(F)F (stereo not drawn)

1. 10
2. 0
3. 0

What measured Plant response rating, Bromegrass, Downy goes with `CCn1nc(C(F)(F)F)c(CS(=O)(=O)c2cccc[n+]2[O-])c1OCC(F)(F)F` ?
40
